conditions: in methanol, 292.15 K
readout-label: solubility (mole fraction)
Respond using a number only.

Q. I am curious: what solubility (mole fraction) value has been reported for O=c1c2ccccc2sc2ccccc12 ?
A. 0.000163

====

details: in 2-butanone, 326.55 K
readout-label: solubility (mole fraction)
Respond using a number only.

Q. I am curious: what solubility (mole fraction) value has been reported for O=c1c2ccccc2sc2ccccc12 ?
A. 0.00947

====

settings: in n-propanol, 311.25 K
readout-label: solubility (mole fraction)
Respond using a number only.

Q. I am curious: what solubility (mole fraction) value has been reported for O=c1c2ccccc2sc2ccccc12 ?
A. 0.00114

====

settings: in ethyl acetate, 305.05 K
readout-label: solubility (mole fraction)

Q. I am curious: what solubility (mole fraction) value has been reported for O=c1c2ccccc2sc2ccccc12 ?
A. 0.00405
